B1: HDV Ribozyme (parent)
chain: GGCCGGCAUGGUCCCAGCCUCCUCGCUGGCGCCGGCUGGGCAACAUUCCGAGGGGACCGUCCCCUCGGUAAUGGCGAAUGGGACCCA

- Variants of: B1
- test.description: self-cleavage, relative activity (ratio to wild type); higher = more cleavage; co-transcriptional
# binarize self-cleavage: threshold 0.1 inclusive, high side yes, low side no

[[record]]
residues = "GGCCGGCAUGGUCCCAGCCUCCUCGCUGGCGCCGCCAGGGCAACAUUCCGAGGGGACCGUCCCCUCGGUAAUGGCGAAUGGGACCCA [G35C U37A]"
answer_label = "no"


I'd appreciate it if you could say whether GGCCGGCAUGGUCCCAGCCUCCUCGCUGGCGCCGGCUGGGCAACAUUCCGAGGGGCCCGUCCCCUCGGUAAUGGCGAAUAGGACCCA [A56C G80A] has self-cleavage at least equal to 0.1.
yes

I'd appreciate it if you could say whether GGCCGGCAUGGUCCCAGCCUCCUCGCUGGCGCCGGCUGUGCAACAUUCCAAGGGGACCGUCCCCUCGGUAAUGGCGAAUGGGACCCA [G39U G50A] has self-cleavage at least equal to 0.1.
yes

I'd appreciate it if you could say whether GGCCGGCAUGGUCCCAGCCUCCUCGCAGGCGCCGGCUGAGCAACAUUCCGAGGGGACCGUCCCCUCGGUAAUGGCGAAUGGGACCCA [U27A G39A] has self-cleavage at least equal to 0.1.
yes

I'd appreciate it if you could say whether GGCCGGCAUGGUCCUAGCCUUCUCGCUGGCGCCGGCUGGGCAACAUUCCGAGGGGACCGUCCCCUCGGUAAUGGCGAAUGGGACCCA [C15U C21U] has self-cleavage at least equal to 0.1.
yes

I'd appreciate it if you could say whether GGCCGUCAUGGUCCCAGCCUCCUCGCUGGCGCCGGCUGGGCAACAUUCCGAGGGGACCGUCCCCUCGGUAAUGGCGAAUAGGACCCA [G6U G80A] has self-cleavage at least equal to 0.1.
yes

I'd appreciate it if you could say whether GGCCGGCAUGGUCCCAGCCUCCUCGCUGGCGCGGCCUGGGCAACAUUCCGAGGGGACCGUCCCCUCGGUAAUGGCGAAUGGGACCCA [C33G G35C] has self-cleavage at least equal to 0.1.
no

I'd appreciate it if you could say whether GGCCGGCAUGGUCCCAGCCUCCUCGCUGGCGCCGGCUGGGCAACAUUCCGAGGGGACCGUCCCCUAGGUAAUGGUGAAUGGGACCCA [C66A C75U] has self-cleavage at least equal to 0.1.
yes

I'd appreciate it if you could say whether GGCCGGCAUGGUCCCAGCCUCGUCCCUGGCGCCGGCUGGGCAACAUUCCGAGGGGACCGUCCCCUCGGUAAUGGCGAAUGGGACCCA [C22G G25C] has self-cleavage at least equal to 0.1.
no

I'd appreciate it if you could say whether GGCCGGCAUGGUCCCAGCCUCCUCGCUGGCGCCGGCUGGGCAACAUUCCGAGGGGACCGACACCUCGGUAAUGGCGAAUGGGACCCA [U60A C62A] has self-cleavage at least equal to 0.1.
yes

I'd appreciate it if you could say whether GGCCGGCAUGGUCCCAGCCUCCUCGCUGGCGCCCGCUGGGCAACAUUCCGAGGGGACCGUCCCCUCGGUAAUGGCGGAUGGGACCCA [G34C A77G] has self-cleavage at least equal to 0.1.
yes

I'd appreciate it if you could say whether GGCCGGCAUGGUCCCAGCCUCCGCGCUGGAGCCGGCUGGGCAACAUUCCGAGGGGACCGUCCCCUCGGUAAUGGCGAAUGGGACCCA [U23G C30A] has self-cleavage at least equal to 0.1.
yes

I'd appreciate it if you could say whether GGCCGGCAUGGUCCCAGCCUCCUCGCUCGCGCCGGCUGGGCAACAUUCCGAGCGGACCGUCCCCUCGGUAAUGGCGAAUGGGACCCA [G28C G53C] has self-cleavage at least equal to 0.1.
no

I'd appreciate it if you could say whether GGCCGGCAUGGUCCCAGCCUCCUCGCUGGCGCCGGCAGGGCAACAUUCCGAGGGGACCGUCCCCUCGGUAAUGGCGAAUGUGACCCA [U37A G81U] has self-cleavage at least equal to 0.1.
no

I'd appreciate it if you could say whether GGCCGGCAUGGUCCCAGCCUCCUCGCUGGCGCCGGCUGGGCAACAUUCCGAGGGGACCGUCCCCUCGGUAAUGGCGAAUGAGACCUA [G81A C86U] has self-cleavage at least equal to 0.1.
yes
